# protocolDescription: qHTS assay to identify small molecule agonists of the hypoxia (HIF-1) signaling pathway - cell viability counter screen (AID 1224844); also: nearly all actives have a fitted effect of over 50% in size
# conditionDescription: HRE-bla ME-180 viability, CellTiter-Glo luminescence, 17 h; series mostly up to 76.8 µM
Results filed as inconclusive are left out. Calls of active or inactive are those of the source. Calls follow the shape of the full dose curve.
Result category, one only: T (active), F (inactive)

compound: Cc1cccc(C#N)c1
assignedClass: F
--
compound: C[C@]1(O)CC[C@H]2[C@@H]3CCC4=CC(=O)CC[C@]4(C)[C@@]3(F)[C@@H](O)C[C@@]21C
assignedClass: F
--
compound: CCOP(=O)(OCC)OP(=O)(OCC)OCC
assignedClass: F
--
compound: CNC(=O)Oc1ccccc1C1OCCO1
assignedClass: F
--
compound: COP(=S)(OC)Oc1c(Cl)cc(C)cc1Cl
assignedClass: F

Asked: Per the records of this test, what outcome belongs to OCCBr ?
Given back: F

Asked: Note, next up: CCCCOC(=O)c1ccccc1N
Given back: F

Asked: Note, next up: COc1cc(C[C@@H](C)N)c(OC)cc1C
Given back: F

Asked: Note, next up: N#CC(CCc1ccc(Cl)cc1)(Cn1cncn1)c1ccccc1 (stereo not drawn)
Given back: T

Asked: Note, next up: ClC(Cl)C(Cl)Cl
Given back: F

Asked: Note, next up: CCOC(=O)/C=C(C)/C=C/C[C@@H](C)CCCC(C)C
Given back: F

Asked: Note, next up: CCCSC(=O)Cl
Given back: F

Asked: Note, next up: CC1(C(=O)Nc2ccc(O)c(Cl)c2Cl)CCCCC1
Given back: F

Asked: Note, next up: COc1cc2c(cc1OC)[C@@]13CCN4CC5=CCO[C@H]6CC(=O)N2[C@H]1[C@H]6[C@H]5C[C@H]43
Given back: F

Asked: Note, next up: CCS(=O)(=O)C(C)(C)S(=O)(=O)CC
Given back: F

Asked: Note, next up: Cc1ncsc1CCCl
Given back: F

Asked: Note, next up: O=C1CN=C(c2ccccc2)c2cc([N+](=O)[O-])ccc2N1
Given back: F
